# Organism: Bos taurus
# assay_text: Ability to inhibit 3H substance P binding to bovine retina was evaluated
# Format: functional
pIC50: −log10 of the molar value.
test_readout: pIC50

I = Cc1cc(C)cc(C(=O)N(C)[C@H](Cc2ccccc2)C(=O)N[C@@H](Cc2c[nH]c3ccccc23)C(=O)O)c1
II = Cc1cc(C)cc(C(=O)N(C)[C@H](Cc2ccccc2)C(=O)NCCc2c[nH]c3ccccc23)c1
Prompt line: Between I and II , whose recorded pIC50 is greater? Label of pick, please.
Response line: II

###

Catalogue of Ki values
# tested_target: Endothelin-1 receptor (Sus scrofa)
# Sequence (Q29010 whole entry): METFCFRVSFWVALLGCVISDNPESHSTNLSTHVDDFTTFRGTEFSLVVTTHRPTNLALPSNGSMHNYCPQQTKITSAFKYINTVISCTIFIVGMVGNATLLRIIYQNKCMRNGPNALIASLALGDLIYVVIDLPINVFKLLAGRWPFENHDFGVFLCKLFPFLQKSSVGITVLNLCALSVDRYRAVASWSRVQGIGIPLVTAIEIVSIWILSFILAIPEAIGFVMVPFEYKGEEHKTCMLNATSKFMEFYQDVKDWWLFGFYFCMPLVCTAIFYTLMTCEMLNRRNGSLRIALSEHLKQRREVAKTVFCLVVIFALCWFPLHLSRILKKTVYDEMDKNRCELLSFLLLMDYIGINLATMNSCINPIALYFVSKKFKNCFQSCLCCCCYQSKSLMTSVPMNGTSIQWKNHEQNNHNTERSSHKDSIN
Starred links: 1 amine or outer side, 2 acyl side, 3 side chain; linkers in the order of their positions; H or OH if unused. Residues, ends and D or L forms follow the SMILES beside them. Suc = O=C(CCC(=O)[*:2])[*:1]

Prompt line: Determine from records and report Ki for CC[C@H](C)[C@H](NC(=O)[C@H](CC(=O)O)NC(=O)CNC(=O)[C@H](Cc1c[nH]cn1)NC(=O)[C@H](C)NC(=O)[C@H](Cc1ccccc1)NC(=O)[C@H](Cc1ccc(O)cc1)NC(=O)[C@@H](NC(=O)[C@H](C)NC(=O)[C@H](CCC(=O)O)NC(=O)CCC(=O)O)C(C)C)C(=O)N[C@H](C(=O)N[C@@H](Cc1c[nH]c2ccccc12)C(=O)O)[C@@H](C)CC (Suc-EAVYFAHGDIIW-OH)
Response line: > 10 µM

Prompt line: Determine from records and report Ki for CC[C@H](C)[C@H](NC(=O)CNC(=O)[C@H](CC(C)C)NC(=O)[C@H](Cc1cnc[nH]1)NC(=O)[C@H](C)NC(=O)[C@H](Cc1ccccc1)NC(=O)[C@H](Cc1ccc(O)cc1)NC(=O)[C@@H](NC(=O)[C@H](C)NC(=O)[C@H](CCC(=O)O)NC(=O)CCC(=O)O)C(C)C)C(=O)N[C@H](C(=O)N[C@@H](Cc1c[nH]c2ccccc12)C(=O)O)[C@@H](C)CC (Suc-EAVYFAHLGIIW-OH)
Response line: 0.096 µM

Prompt line: Determine from records and report Ki for CC[C@H](C)[C@H](NC(=O)[C@H](CC(=O)O)NC(=O)[C@H](CC(C)C)NC(=O)[C@H](Cc1cnc[nH]1)NC(=O)[C@H](C)NC(=O)[C@H](Cc1ccccc1)NC(=O)[C@H](Cc1ccc(O)cc1)NC(=O)[C@@H](NC(=O)[C@H](C)NC(=O)[C@H](CCC(=O)O)NC(=O)CCC(=O)O)C(C)C)C(=O)NCC(=O)N[C@@H](Cc1c[nH]c2ccccc12)C(=O)O (Suc-EAVYFAHLDIGW-OH)
Response line: > 10 µM
